experiment: Plasma levels of 9-deoxo-16,16-dimethyl-9-methylene-PGE2 by radioimmunoassay after insertion of a suppository; assay type: in vivo, Rhesus monkeys (Macaca mulatta); conditions: rhesus monkey, plasma, 30 mg, plasma; Monkey #6 (pregnant animal with uterine recording); 0.25 Hours; 30 mg Potassium Salt in H15 Suppositories; read-out: Drug Levels
Structures can show the parent of a compound that is named as a salt.
Measurement type: concentration at 0.25 h
Answer format: number, then unit.

Specify reported concentration at 0.25 h for the compound shown: C=C1C[C@@H](O)[C@H](/C=C/[C@@H](O)C(C)(C)CCCC)[C@H]1C/C=C\CCCC(=O)O [Potassium Salt] 76.6 ng/mL

----------
assay: Plasma levels of 9-deoxo-16,16-dimethyl-9-methylene-PGE2 by radioimmunoassay after insertion of a suppository; type: in vivo, Rhesus monkeys (Macaca mulatta); details: rhesus monkey, plasma, 30 mg, plasma; Monkey #7; 1.5 Hours; 30 mg Free Acid in H15 Plus 2% CSD Suppositories; read-out: Drug Levels
Measurement type: concentration at 1.5 h (ng/mL)
State just the number; it will be interpreted in ng/mL.

Specify reported concentration at 1.5 h for the compound shown: C=C1C[C@@H](O)[C@H](/C=C/[C@@H](O)C(C)(C)CCCC)[C@H]1C/C=C\CCCC(=O)O [Free Acid, 9-deoxo-16,16-dimethyl-9-methylene-PGE2] 42.2

----------
assay: Plasma levels of 9-deoxo-16,16-dimethyl-9-methylene-PGE2 by radioimmunoassay after insertion of a suppository; format: in vivo, Rhesus monkeys (Macaca mulatta); details: rhesus monkey, plasma, 30 mg, plasma; Monkey #7; 2 Hours; 30 mg Free Acid in H15 Plus 2% CSD Suppositories; read-out: Drug Levels
Measurement type: concentration at 2 h (ng/mL)
State just the number; it will be interpreted in ng/mL.

Specify reported concentration at 2 h for the compound shown: C=C1C[C@@H](O)[C@H](/C=C/[C@@H](O)C(C)(C)CCCC)[C@H]1C/C=C\CCCC(=O)O [Free Acid, 9-deoxo-16,16-dimethyl-9-methylene-PGE2] 37

----------
assay: Plasma levels of 9-deoxo-16,16-dimethyl-9-methylene-PGE2 by radioimmunoassay after insertion of a suppository; assay type: in vivo, Rhesus monkeys (Macaca mulatta); conditions: rhesus monkey, plasma, 30 mg, plasma; Monkey #15 (pregnant animal with uterine recording); 3 Hours; 30 mg Free Acid in H15 Plus 2% CSD + 10% Triacetin Suppositories; read-out: Drug Levels
Measurement type: concentration at 3 h (ng/mL)
State just the number; it will be interpreted in ng/mL.

Specify reported concentration at 3 h for the compound shown: C=C1C[C@@H](O)[C@H](/C=C/[C@@H](O)C(C)(C)CCCC)[C@H]1C/C=C\CCCC(=O)O [Free Acid, 9-deoxo-16,16-dimethyl-9-methylene-PGE2] 65.9

----------
assay: Plasma levels of 9-deoxo-16,16-dimethyl-9-methylene-PGE2 by radioimmunoassay after insertion of a suppository; type: in vivo, Rhesus monkeys (Macaca mulatta); settings: rhesus monkey, plasma, 30 mg, plasma; Monkey #6 (pregnant animal with uterine recording); 6 Hours; 30 mg Potassium Salt in H15 Suppositories; read-out: Drug Levels
Where a name gives a salt, the structure may show the parent alone.
Measurement type: concentration at 6 h (ng/mL)
State just the number; it will be interpreted in ng/mL.

Specify reported concentration at 6 h for the compound shown: C=C1C[C@@H](O)[C@H](/C=C/[C@@H](O)C(C)(C)CCCC)[C@H]1C/C=C\CCCC(=O)O [Potassium Salt] 20.2

----------
Assay: Plasma levels of 9-deoxo-16,16-dimethyl-9-methylene-PGE2 by radioimmunoassay after insertion of a suppository
Type: in vivo, Rhesus monkeys (Macaca mulatta)
Settings: rhesus monkey, plasma, 30 mg, plasma; Monkey #12 (pregnant animal with uterine recording); 24 Hours; 30 mg Potassium Salt in H15 Plus 2% CSD Suppositories; read-out: Drug Levels
Procedure: A. Midtrimester pregnant female Rhesus monkeys (Macaca mulatta) are used. […] D. The plasma levels of 9-deoxo-16,16-d1methy1-9-methy1ene-PGE2 in monkeys treated with 6 formulations containing either 9-deoxo-16,16-dimethyl-9-methylene-PGE2 free acid or potassium salt are shown in Tables 1-6. In general, higher blood levels are measured in pregnant Rhesus monkeys than in non-pregnant monkeys.
Structures can show the parent of a compound that is named as a salt.
Measurement type: concentration at 24 h (ng/mL)
State just the number; it will be interpreted in ng/mL.

Specify reported concentration at 24 h for the compound shown: C=C1C[C@@H](O)[C@H](/C=C/[C@@H](O)C(C)(C)CCCC)[C@H]1C/C=C\CCCC(=O)O [Potassium Salt] 6.04

----------
assay: Plasma levels of 9-deoxo-16,16-dimethyl-9-methylene-PGE2 by radioimmunoassay after insertion of a suppository; type: in vivo, Rhesus monkeys (Macaca mulatta); conditions: rhesus monkey, plasma, 30 mg, plasma; Monkey #12 (pregnant animal with uterine recording); 4 Hours; 30 mg Potassium Salt in H15 Plus 2% CSD Suppositories; read-out: Drug Levels
Where a name gives a salt, the structure may show the parent alone.
Measurement type: concentration at 4 h (ng/mL)
State just the number; it will be interpreted in ng/mL.

Specify reported concentration at 4 h for the molecule shown: C=C1C[C@@H](O)[C@H](/C=C/[C@@H](O)C(C)(C)CCCC)[C@H]1C/C=C\CCCC(=O)O [Potassium Salt] 36.1

----------
assay: Plasma levels of 9-deoxo-16,16-dimethyl-9-methylene-PGE2 by radioimmunoassay after insertion of a suppository; format: in vivo, Rhesus monkeys (Macaca mulatta); details: rhesus monkey, plasma, 30 mg, plasma; Monkey #9 (pregnant animal with uterine recording); 4 Hours; 30 mg Free Acid in H15 Plus 2% CSD Suppositories; read-out: Drug Levels
Measurement type: concentration at 4 h (ng/mL)
State just the number; it will be interpreted in ng/mL.

Specify reported concentration at 4 h for the molecule shown: C=C1C[C@@H](O)[C@H](/C=C/[C@@H](O)C(C)(C)CCCC)[C@H]1C/C=C\CCCC(=O)O [Free Acid, 9-deoxo-16,16-dimethyl-9-methylene-PGE2] 57.8

----------
test: Plasma levels of 9-deoxo-16,16-dimethyl-9-methylene-PGE2 by radioimmunoassay after insertion of a suppository; type: in vivo, Rhesus monkeys (Macaca mulatta); settings: rhesus monkey, plasma, 30 mg, plasma; Monkey #6 (pregnant animal with uterine recording); 1 Hours; 30 mg Potassium Salt in H15 Suppositories; read-out: Drug Levels
Counter-ions that a name gives are not always drawn.
Measurement type: concentration at 1 h (ng/mL)
State just the number; it will be interpreted in ng/mL.

Specify reported concentration at 1 h for the compound shown: C=C1C[C@@H](O)[C@H](/C=C/[C@@H](O)C(C)(C)CCCC)[C@H]1C/C=C\CCCC(=O)O [Potassium Salt] 29.6

----------
Assay: Plasma levels of 9-deoxo-16,16-dimethyl-9-methylene-PGE2 by radioimmunoassay after insertion of a suppository
Format: in vivo, Rhesus monkeys (Macaca mulatta)
Conditions: rhesus monkey, plasma, 30 mg, plasma; Monkey #5; 1 Hours; 30 mg Potassium Salt in H15 Suppositories; read-out: Drug Levels
Protocol: A. Midtrimester pregnant female Rhesus monkeys (Macaca mulatta) are used. […] D. The plasma levels of 9-deoxo-16,16-d1methy1-9-methy1ene-PGE2 in monkeys treated with 6 formulations containing either 9-deoxo-16,16-dimethyl-9-methylene-PGE2 free acid or potassium salt are shown in Tables 1-6. In general, higher blood levels are measured in pregnant Rhesus monkeys than in non-pregnant monkeys.
Where a name gives a salt, the structure may show the parent alone.
Measurement type: concentration at 1 h (ng/mL)
State just the number; it will be interpreted in ng/mL.

Specify reported concentration at 1 h for the compound shown: C=C1C[C@@H](O)[C@H](/C=C/[C@@H](O)C(C)(C)CCCC)[C@H]1C/C=C\CCCC(=O)O [Potassium Salt] 1.42

----------
assay: Plasma levels of 9-deoxo-16,16-dimethyl-9-methylene-PGE2 by radioimmunoassay after insertion of a suppository; assay type: in vivo, Rhesus monkeys (Macaca mulatta); details: rhesus monkey, plasma, 30 mg, plasma; Monkey #8; 0.5 Hours; 30 mg Free Acid in H15 Plus 2% CSD Suppositories; read-out: Drug Levels
Measurement type: concentration at 0.5 h (ng/mL)
State just the number; it will be interpreted in ng/mL.

Specify reported concentration at 0.5 h for the compound shown: C=C1C[C@@H](O)[C@H](/C=C/[C@@H](O)C(C)(C)CCCC)[C@H]1C/C=C\CCCC(=O)O [Free Acid, 9-deoxo-16,16-dimethyl-9-methylene-PGE2] 134

----------
assay: Plasma levels of 9-deoxo-16,16-dimethyl-9-methylene-PGE2 by radioimmunoassay after insertion of a suppository; format: in vivo, Rhesus monkeys (Macaca mulatta); conditions: rhesus monkey, plasma, 30 mg, plasma; Monkey #18; 1 Hours; 30 mg Potassium Salt in H15 Plus 2% CSD + 10% Triacetin Suppositories; read-out: Drug Levels
Structures can show the parent of a compound that is named as a salt.
Measurement type: concentration at 1 h (ng/mL)
State just the number; it will be interpreted in ng/mL.

Specify reported concentration at 1 h for the compound shown: C=C1C[C@@H](O)[C@H](/C=C/[C@@H](O)C(C)(C)CCCC)[C@H]1C/C=C\CCCC(=O)O [Potassium Salt] 64.4
